B1: Twister Ribozyme (parent)
chain: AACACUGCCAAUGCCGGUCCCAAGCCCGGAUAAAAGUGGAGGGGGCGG

- Variants of: B1
- protocol_description: self-cleavage, relative activity (ratio to wild type); higher = more cleavage; co-transcriptional
This listing pairs variants with measured self-cleavage.
experimental_readout: self-cleavage

> print(dat)
                                       chain  experimental.readout  quantitative.result
 1  AAUACUGCCAAUGCCGGUCCCAAGCCCGGACAAAAGUGGAGGGGGCGG [C3U U31C]         self-cleavage                0.391
 2  AACACUGCCAAUGCCGGUCCCUAGCCCGGUUAAAAGUGGAGGGGGCGG [A22U A30U]         self-cleavage                0.999
 3  AACACUGCCAAUGCCGGUCCCAAGCCCGGAUAAACGUGGAGGGGGCGU [A35C G48U]         self-cleavage                0.978
 4  AACACCGCCAAUGCCGGGCCCAAGCCCGGAUAAAAGUGGAGGGGGCGG [U6C U18G]         self-cleavage               0.0358
 5  AACACUGCCAAUGCCGGUCCCGAGCCCGGAUAAAAAUGGAGGGGGCGG [A22G G36A]         self-cleavage               0.0781
 6  AACACUGCCAAUGCCGGUCCCAAGUCCGGAUAAAAAUGGAGGGGGCGG [C25U G36A]         self-cleavage                0.263
 7  AACACUGCCAAUGCCGGUCCCAAGCCCGGAAACAAGUGGAGGGGGCGG [U31A A33C]         self-cleavage                0.833
 8  AACACUGCCAAUGCCGGUACCAAGCACGGAUAAAAGUGGAGGGGGCGG [C19A C26A]         self-cleavage               0.0793
 9  AACACUGCCAAUGCCGGUCCCAAGCCCGCAUAAAAGUGGAGGAGGCGG [G29C G43A]         self-cleavage                0.119
10  AUCACUGCCAAUGUCGGUCCCAAGCCCGGAUAAAAGUGGAGGGGGCGG [A2U C14U]         self-cleavage                0.591
11  AACAUUGCCAAUGCCGGUCCCAAGCGCGGAUAAAAGUGGAGGGGGCGG [C5U C26G]         self-cleavage               0.0996
12  AACACCGCCAAUGCCGGCCCCAAGCCCGGAUAAAAGUGGAGGGGGCGG [U6C U18C]         self-cleavage               0.0688
13  AACACUGCCAAUGCCGGUCCCAAUCCCGGCUAAAAGUGGAGGGGGCGG [G24U A30C]         self-cleavage               0.0633
14  AACACUGCCAAUGCCGGUCCCUAGCCCUGAUAAAAGUGGAGGGGGCGG [A22U G28U]         self-cleavage                0.736
15  AACACUGCCAAUGCCGGUCCCAAGCGCGGACAAAAGUGGAGGGGGCGG [C26G U31C]         self-cleavage                0.165
16  AACACUGCCAAUGCCGGUCUGAAGCCCGGAUAAAAGUGGAGGGGGCGG [C20U C21G]         self-cleavage               0.0649
17  AACACUGCCAAUGCCGGUCGCAAGCCCGGAUAAAAGUGGAGGGGGCGG [C20G]         self-cleavage                0.169
18  AACACUGCCAAUGCCGGUCCCAAGGCCGGAUAAAAGUCGAGGGGGCGG [C25G G38C]         self-cleavage                0.229
19  AACACUGCCAAUGCCGGUCCCAAGCCCGGAUGAAAGUGGAGGUGGCGG [A32G G43U]         self-cleavage                0.439
20  AACACUGCCAAUGCCGGUCCCAAGGCCGGAGAAAAGUGGAGGGGGCGG [C25G U31G]         self-cleavage                0.393
21  AACACUGCCAAUGCCGGUCCCAAGCCCGGAUAAAAGUGGAGGGGUCCG [G45U G47C]         self-cleavage                0.435
22  AACACUGCCAAUGCCGGUCCCAAGCCCGGAAAACAGUGGAGGGGGCGG [U31A A34C]         self-cleavage                0.536
